Molecular target: human Yes1 enzyme (Homo sapiens)
Construct: made in house
Sequence (P07947 whole entry): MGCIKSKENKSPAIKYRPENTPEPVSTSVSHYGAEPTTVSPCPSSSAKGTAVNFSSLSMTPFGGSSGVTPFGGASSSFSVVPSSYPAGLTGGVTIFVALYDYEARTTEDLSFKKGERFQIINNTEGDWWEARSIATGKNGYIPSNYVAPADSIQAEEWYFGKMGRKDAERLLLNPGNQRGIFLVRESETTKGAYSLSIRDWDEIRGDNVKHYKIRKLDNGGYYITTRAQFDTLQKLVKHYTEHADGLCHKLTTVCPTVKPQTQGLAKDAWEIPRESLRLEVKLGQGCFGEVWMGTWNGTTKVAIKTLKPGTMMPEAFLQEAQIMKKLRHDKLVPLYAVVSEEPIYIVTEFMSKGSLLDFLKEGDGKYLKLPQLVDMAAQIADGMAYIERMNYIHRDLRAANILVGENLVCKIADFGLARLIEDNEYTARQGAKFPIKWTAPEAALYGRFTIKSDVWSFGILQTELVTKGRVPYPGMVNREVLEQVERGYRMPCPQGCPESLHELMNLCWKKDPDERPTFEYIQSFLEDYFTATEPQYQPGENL
Assay: Yes1 enzyme inhibitory activity (time-resolved fluorometry, biotinylated peptide phosphorylation)
Format: biochemical
Conditions: biotinylated peptide phosphorylation, read-out: YES_IC50
pIC50: −log10 of the molar value.
property-label: pIC50

{"compound": "Cc1cc2cc(C(=O)c3cnn(-c4cnc(Oc5ccccc5F)cc4C)c3N)[nH]c2cc1NS(=O)(=O)c1cccc(Cl)c1 [Example 5-1-464]", "measured-target": "human Yes1 enzyme (Homo sapiens)", "recorded-result": 8.03}
{"compound": "Cc1cc2cc(C(=O)c3cnn(-c4cnc(Oc5ccccc5C)cc4C)c3N)[nH]c2cc1NS(C)(=O)=O [Example 4-2-065]", "measured-target": "human Yes1 enzyme (Homo sapiens)", "recorded-result": 8.66}
{"compound": "Cc1cc(Oc2c(F)cccc2F)ncc1-n1ncc(C(=O)c2cc3cc(OC(F)F)c(NC4COC4)cc3[nH]2)c1N [Example 4-23-014]", "measured-target": "human Yes1 enzyme (Homo sapiens)", "recorded-result": 8.46}
{"compound": "Cc1cc2cc(C(=O)c3cnn(-c4cnc(Oc5c(F)cccc5F)cc4C)c3N)[nH]c2cc1NS(=O)(=O)c1cccc(Cl)n1 [Example 5-1-526]", "measured-target": "human Yes1 enzyme (Homo sapiens)", "recorded-result": 8.10}
{"compound": "Cc1cc(Oc2ccccc2F)ncc1-n1ncc(C(=O)c2cc3cc(OC(F)F)c(N4CCCS4(=O)=O)cc3[nH]2)c1N [Example 4-25-004]", "measured-target": "human Yes1 enzyme (Homo sapiens)", "recorded-result": 9.00}
{"compound": "Cc1cc(Oc2c(F)cccc2F)ncc1-n1ncc(C(=O)c2cc3cc(F)c(N(C4CCOCC4)S(C)(=O)=O)cc3[nH]2)c1N [Example 4-2-127]", "measured-target": "human Yes1 enzyme (Homo sapiens)", "recorded-result": 8.89}
